Tested on: L. monocytogenes CBC3
Experiment: Deferred antagonism assay
Format: cell-based, Listeria monocytogenes
Set-up: key: + = Enhanced bioactivity relative to control; − = Bioactivity equal to or less than control; NA = no activity evident
Details: producing strain; L. mono CBC3
Ends that are not written are not given here.
readout-name: Bioactivity relative to control

Solved cases (5 shown):
{"substance": "NisinA K22L (ITSISLCTPGCKTGALMGCNMLTATCHCSIHVSK; not fully specified; cysteine pairing not given here; also: lantibiotic nisin-A; UniProt P13068 24-57, looked up, variant K22L) [nisin A derivative, hinge substitution K22L]", "Bioactivity relative to control": "−"}
{"substance": "N20W: nisin A derivative, hinge substitution N20W (ITSISLCTPGCKTGALMGCWMKTATCHCSIHVSK; cysteine pairing not given here; also: lantibiotic nisin-A; UniProt P13068 24-57, looked up, variant N20W)", "Bioactivity relative to control": "−"}
{"substance": "K22F: nisin A derivative, hinge substitution K22F (ITSISLCTPGCKTGALMGCNMFTATCHCSIHVSK; cysteine pairing not given here; also: lantibiotic nisin-A; UniProt P13068 24-57, looked up, variant K22F)", "Bioactivity relative to control": "−"}
{"substance": "NisinA N20P (ITSISLCTPGCKTGALMGCPMKTATCHCSIHVSK; not fully specified; also: lantibiotic nisin: dehydrated residues and thioether rings not placed; UniProt P13068 24-57, looked up, variant N20P) [nisin A derivative, hinge substitution N20P]", "Bioactivity relative to control": "+"}
{"substance": "NisinA M21S (ITSISLCTPGCKTGALMGCNSKTATCHCSIHVSK; not fully specified; also: lantibiotic nisin: dehydrated residues and thioether rings not placed; UniProt P13068 24-57, looked up, variant M21S) [nisin A derivative, hinge substitution M21S]", "Bioactivity relative to control": "+"}

Provide the reported Bioactivity relative to control of each entry below, same order.
1. M21E: nisin A derivative, hinge substitution M21E (ITSISLCTPGCKTGALMGCNEKTATCHCSIHVSK; cysteine pairing not given here; also: lantibiotic nisin-A; UniProt P13068 24-57, looked up, variant M21E)
2. NisinA K22A (ITSISLCTPGCKTGALMGCNMATATCHCSIHVSK; not fully specified; also: lantibiotic: lanthionine rings and dehydro residues not placed; UniProt P13068 24-57, looked up, variant K22A) [nisin A derivative, hinge substitution K22A]

Key:
1. −
2. −

###

Test system: L. monocytogenes CBC1
Assay: Deferred antagonism assay
Type: cell-based, Listeria monocytogenes
Parameters: key: + = Enhanced bioactivity relative to control; − = Bioactivity equal to or less than control; NA = no activity evident
Settings: producing strain; L. mono CBC1
Ends that are not written are not given here.

{"substance": "NisinA K22L (ITSISLCTPGCKTGALMGCNMLTATCHCSIHVSK; not fully specified; cysteine pairing not given here; also: lantibiotic nisin-A; UniProt P13068 24-57, looked up, variant K22L) [nisin A derivative, hinge substitution K22L]", "Bioactivity relative to control": "−"}
{"substance": "NisinA N20H (ITSISLCTPGCKTGALMGCHMKTATCHCSIHVSK; not fully specified; also: lantibiotic nisin: dehydrated residues and thioether rings not placed; UniProt P13068 24-57, looked up, variant N20H) [nisin A derivative, hinge substitution N20H]", "Bioactivity relative to control": "−"}
{"substance": "NisinA M21Y (ITSISLCTPGCKTGALMGCNYKTATCHCSIHVSK; not fully specified; also: lantibiotic: lanthionine rings and dehydro residues not placed; UniProt P13068 24-57, looked up, variant M21Y) [nisin A derivative, hinge substitution M21Y]", "Bioactivity relative to control": "−"}
